Molecular target: human dopamine D1 receptor (human, UniProt P21728 1-446)
Sequence (P21728 whole entry): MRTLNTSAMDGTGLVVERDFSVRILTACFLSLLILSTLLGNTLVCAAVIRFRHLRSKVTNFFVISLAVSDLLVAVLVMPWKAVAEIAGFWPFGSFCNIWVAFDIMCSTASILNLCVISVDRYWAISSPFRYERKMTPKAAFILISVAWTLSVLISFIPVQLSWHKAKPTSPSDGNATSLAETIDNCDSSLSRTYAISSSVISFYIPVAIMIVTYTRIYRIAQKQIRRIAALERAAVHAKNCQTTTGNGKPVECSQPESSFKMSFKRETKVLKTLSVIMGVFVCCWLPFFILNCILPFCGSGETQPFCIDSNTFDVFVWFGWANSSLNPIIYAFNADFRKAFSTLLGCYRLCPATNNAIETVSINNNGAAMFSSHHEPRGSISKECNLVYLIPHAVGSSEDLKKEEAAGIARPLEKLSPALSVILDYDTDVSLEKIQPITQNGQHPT
Assay: cell-based or functional assay
result_type: max Ca2+ signal, COS-7, FLIPR; agonist DA

Name the reported max Ca2+ signal, COS-7, FLIPR; agonist DA value associated with the binder C. elegans Gαq/s9 (other) MACCLSEEAREQKRINQEIEKQLQRDKRNARRELKLLLLGTGESGKSTFIKQMRIIHGQGYSEEDKRAHIRLVYQNVFMAIQSMIRAMDTLDIKFGNESEELQEKAAVVREVDFESVTSFEEPYVSYIKELWEDSGIQECYDRRREYQLTDSAKYYLSDLRRLAVPDYLPTEQDILRVRVPTTGIIEYPFDLEQIIFRMVDVGGQRSERRKWIHCFENVTSIMFLVALSEYDQVLVECDNENRMEESKALFRTIITYPWFTNSSVILFLNKKDLLEEKILYSHLADYFPEYDGPPRDPIAAREFILKMFVDLNPDADKIIYSHFTCATDTENIRFVFAAVKDTILQMHLRQYELL
8690 fluorescence units
